CC50 reference
Assay: MMV: Cytotoxicity CRC and LD50 against HepG2
Format: toxicity, cell-based
Conditions: human, HepG2 cells; read-out: LD50 (the source's name)
Expressed in µM, but write only the number.

Field: example entries. Status: answers known.
Cc1ccc2cc3c(N)c4c(C)ccc(C)c4nc3nc2c1
2.84
CCOC(=O)c1cnc2ccc(OC)cc2c1Nc1ccc(N2CCN(C)CC2)cc1
22.8
O=C(Nc1ccc(Br)cc1)Nc1cccc(Cl)c1
18.6
Cc1ccc(Nc2nc(N)c3ccccc3n2)cc1Cl
10.9
CC1CCN(Cc2ccc(NC(=O)c3cc4ccc5cccnc5c4[nH]3)cc2)CC1
4.42
Cc1nc2ccccc2c(O)c1CC=C(Cl)Cl
98.8
CN1CCN(c2ccc(Nc3c4ccccc4nc4ccccc34)cc2)CC1
0.654
CCN(CC)CCCNc1nc(-c2ccc(Cl)cc2)nc2ccccc12
2.72

Field: next molecule
Data request: I'd like to know its CC50. The molecule in question is CCn1nc(-c2ccc(C(=O)OC)cc2)nc2c(=O)n(C)c(=O)nc1-2
Data returned: 1.36
